Tested on: BMDCs
TEST_METHOD_NOTES: LDH release (lytic cell death, pyroptosis) from LPS-primed BMDCs
Assay type: cell-based, mouse
CONDITION_SUMMARY: Mus musculus, BMDC, single replicates; compound 50 μM; LPS-primed BMDCs; read-out: LDH release (% of max.)
cytotoxicity at 50 µM strictly less than 9% = Condition met. Otherwise Condition not met.

>>> classification("O=C(Nc1ccccc1)Nc1cccc([N+](=O)[O-])c1")
"Condition not met"
>>> classification("CS(=O)(=O)c1cc(NC(=O)Nc2ccccc2)ccc1Cl")
"Condition met"
>>> classification("N#Cc1ccc(NC(=O)NC(CO)c2nc(-c3ccccc3)no2)cc1 (centres unmarked)")
"Condition met"
>>> classification("CC(C)C(NC(=O)Nc1ccc2c(c1)COC2)c1nc(-c2cccnc2)no1 (centres unmarked)")
"Condition not met"
>>> classification("O=C(Nc1ccccc1)Nc1ccc2c(c1)CCC2")
"Condition not met"
>>> classification("O=C(Nc1ccccc1)Nc1cccc(NC(=O)c2ccoc2)c1")
"Condition met"
>>> classification("O=C1CN(c2ccccc2)C(=O)N1Cc1nc(-c2ccc(Cl)cc2)no1")
"Condition not met"
>>> classification("N#Cc1ccc(NC(=O)Nc2ccccc2)cc1")
"Condition not met"
>>> classification("Cc1cccc(NC(=O)Nc2ccccc2)c1")
"Condition met"
>>> classification("O=C(Nc1ccccc1)Nc1ccc(NC(=O)C2CCCC2)cc1")
"Condition not met"
>>> classification("CC1Oc2ccc(NC(=O)Nc3ccccc3)cc2NC1=O (centres unmarked)")
"Condition not met"
>>> classification("CC(=O)Nc1ccc(NC(=O)Nc2ccccc2)cc1")
"Condition met"
>>> classification("Cc1ccc(NC(=O)Nc2ccccc2)cc1NC(=O)C(F)F")
"Condition not met"
>>> classification("O=C(Nc1ccccc1)Nc1cccc(Br)c1")
"Condition not met"
>>> classification("COc1ccc(F)cc1NC(=O)NC(c1nc(-c2cccnc2)no1)C(C)C (centres unmarked)")
"Condition not met"

* * *

Test system: BMDCs
TEST_METHOD_NOTES: LDH release (lytic cell death, pyroptosis) from LPS-primed BMDCs
Type: cell-based, mouse
CONDITION_SUMMARY: LDH release; compound 50 μM; positive control nigericin 5 μM
RECORDED_ENDPOINT: Average (% positive control)

>>> measured("N#Cc1ccc(NC(=O)NC(CO)c2nc(-c3ccccc3)no2)cc1 (stereo not drawn)")
10.010
>>> measured("O=C(NCc1nc(-c2cccnc2)no1)Nc1ccc([N+](=O)[O-])cc1Cl")
9.993
>>> measured("O=C(NCc1nc(-c2cccnc2)no1)Nc1cccc2cnccc12")
18.117
>>> measured("CNC(=O)NCc1cccc(NC(=O)Nc2ccccc2)c1")
8.791
>>> measured("CC(=NO)c1ccc(NC(=O)Nc2ccccc2)cc1")
7.959
>>> measured("O=C(Nc1ccccc1)Nc1ccc(NC(=O)c2ccoc2)cc1")
20.483
>>> measured("O=C(Nc1ccccc1)Nc1ccc(NC(=O)C2CCOC2)cc1 (stereo not drawn)")
27.161
>>> measured("Cc1ccc(NC(=O)Nc2ccccc2)cc1F")
19.235
>>> measured("Cc1ccc(N2C(=O)N(Cc3nc(-c4ccc(F)cc4)no3)C(=O)C2C)cc1 (stereo not drawn)")
11.646
>>> measured("Cc1ccc(NC(=O)Nc2ccccc2)cc1NC(=O)NC(C)C")
32.832
>>> measured("CC(C)C(NC(=O)Nc1ccc2c(c1)COC2)c1nc(-c2cccnc2)no1 (stereo not drawn)")
12.801
>>> measured("O=C(Nc1ccccc1)Nc1ccc(NC(=O)C(F)F)cc1")
17.216
>>> measured("Cc1cccc(NC(=O)Nc2ccccc2)c1")
7.980
>>> measured("O=C(Nc1ccccc1)Nc1cccc(OC(F)F)c1")
33.449
>>> measured("Cc1ccc(N2C(=O)C(=O)N(Cc3nc(-c4ccsc4)no3)C2=O)cc1")
11.833
>>> measured("COc1cccc(NC(=O)N(C)Cc2nc(-c3cccnc3)no2)c1")
9.465
>>> measured("N#Cc1ccc(NC(=O)Nc2ccccc2)cc1")
16.337
>>> measured("COc1ccc(NC(=O)NCc2nc(Cc3ccccc3)no2)cc1")
9.397

* * *

TARGET_DESC: NLRP3 inflammasome (Mus musculus, UniProt Q8R4B8)
Construct: endogenous in cells; host or cells: primary mouse bone marrow-derived dendritic cells (BMDCs), LPS-primed
Sequence (Q8R4B8 whole entry): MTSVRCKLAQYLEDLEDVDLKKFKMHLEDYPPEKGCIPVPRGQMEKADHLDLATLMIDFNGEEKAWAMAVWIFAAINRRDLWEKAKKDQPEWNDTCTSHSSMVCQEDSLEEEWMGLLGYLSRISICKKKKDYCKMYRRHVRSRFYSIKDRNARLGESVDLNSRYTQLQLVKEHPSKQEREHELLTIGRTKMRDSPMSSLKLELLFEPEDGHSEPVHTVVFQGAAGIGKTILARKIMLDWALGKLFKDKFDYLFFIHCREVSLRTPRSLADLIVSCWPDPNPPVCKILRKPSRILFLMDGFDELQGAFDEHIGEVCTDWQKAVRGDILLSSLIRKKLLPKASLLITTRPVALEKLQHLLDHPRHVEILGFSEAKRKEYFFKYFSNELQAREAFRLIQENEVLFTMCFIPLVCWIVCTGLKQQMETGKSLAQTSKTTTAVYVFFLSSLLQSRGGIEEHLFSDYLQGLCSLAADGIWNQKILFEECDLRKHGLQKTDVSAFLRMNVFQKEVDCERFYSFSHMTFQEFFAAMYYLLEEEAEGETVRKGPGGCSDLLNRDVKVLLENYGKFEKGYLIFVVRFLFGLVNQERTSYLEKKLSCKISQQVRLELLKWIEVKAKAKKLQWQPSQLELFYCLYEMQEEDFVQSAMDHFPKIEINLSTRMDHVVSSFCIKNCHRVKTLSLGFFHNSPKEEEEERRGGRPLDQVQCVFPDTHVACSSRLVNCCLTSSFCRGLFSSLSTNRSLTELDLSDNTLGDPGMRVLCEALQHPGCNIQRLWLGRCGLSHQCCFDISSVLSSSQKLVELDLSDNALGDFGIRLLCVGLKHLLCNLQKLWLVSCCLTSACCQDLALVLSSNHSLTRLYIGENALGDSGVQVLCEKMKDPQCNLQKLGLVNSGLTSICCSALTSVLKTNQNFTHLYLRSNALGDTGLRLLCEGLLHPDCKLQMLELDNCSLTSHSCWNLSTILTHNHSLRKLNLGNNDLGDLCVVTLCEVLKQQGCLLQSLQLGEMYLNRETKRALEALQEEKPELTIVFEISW
TEST_METHOD_NOTES: IL-1β release from LPS-primed BMDCs (ELISA) as readout of NLRP3 inflammasome activation
Type: cell-based
CONDITION_SUMMARY: IL-1β release; compound 50 μM; positive control nigericin 5 μM
RECORDED_ENDPOINT: Average (% positive control)

>>> measured("O=C(Nc1cccc(S(=O)(=O)C2CCCC2)c1)N1CCCCC1c1nc(-c2ccccc2)no1 (stereo not drawn)")
0.932
>>> measured("COc1cccc(C)c1NC(=O)NC(c1nc(-c2cccnc2)no1)C(C)C (stereo not drawn)")
0.905
>>> measured("O=C(Nc1ccccc1)Nc1cccc(NC(=O)c2ccoc2)c1")
2.451
>>> measured("Cc1ccc(NC(=O)Nc2ccccc2)cc1F")
13.268
>>> measured("CC(C)C(NC(=O)Nc1cccc(C(F)(F)F)c1)c1nc(-c2cccnc2)no1 (stereo not drawn)")
0.980
>>> measured("Cc1ccc(NC(=O)NCc2nc(Cc3ccccc3)no2)cc1")
0.866
>>> measured("Cc1ccc(NC(=O)Nc2ccccc2)cc1NC(=O)C(F)F")
16.099
>>> measured("Cc1cc(NC(=O)Nc2ccccc2)ccc1N1CCCC1")
5.130
>>> measured("CC(C)=CC(=O)Nc1cccc(NC(=O)Nc2ccccc2)c1")
2.301
>>> measured("O=C1CN(c2ccccc2)C(=O)N1Cc1nc(-c2ccco2)no1")
2.698
>>> measured("Cc1ccc(NC(=O)Nc2ccccc2)cc1NC(=O)NC1CC1")
9.988
>>> measured("O=C(Nc1ccccc1)Nc1ccc(NC(=O)C2CCCC2)cc1")
16.230
>>> measured("COCc1cc(F)ccc1NC(=O)NC(c1nc(-c2cccnc2)no1)C(C)C (stereo not drawn)")
0.947
>>> measured("COc1cccc(NC(=O)N(C)Cc2nc(-c3cccnc3)no2)c1")
1.025
>>> measured("O=C(NCc1nc(-c2ccsc2)no1)Nc1cc(Cl)cc(Cl)c1")
1.584
>>> measured("O=C(NCc1nc(-c2cccnc2)no1)Nc1ccc([N+](=O)[O-])cc1Cl")
0.826
>>> measured("O=C(Nc1ccccc1)Nc1ccc(NC(=O)c2ccco2)cc1")
1.014
>>> measured("CC(C)CC(NC(=O)Nc1cccc(N2CCNC2=O)c1)c1nc(-c2nnc[nH]2)no1 (stereo not drawn)")
0.822
>>> measured("Cc1ccc(N2C(=O)C(=O)N(Cc3nc(-c4ccsc4)no3)C2=O)cc1")
1.598
>>> measured("N#Cc1ccc(NC(=O)NC(CO)c2nc(-c3ccccc3)no2)cc1 (stereo not drawn)")
0.955
>>> measured("O=C(Nc1ccccc1)Nc1cccc(NC(=O)C2CCCC2)c1")
1.624
